The molecules listed here are annotated with their cell viability.
Test system: MOLM14
Assay: cell viability relative to vehicle control; higher = less cytotoxic;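 further: after 48 h exposure read by CellTiter-Glo luminescence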
Settings: 10 µM; SRSF2 genotype: SRSF2 wt/wt
Counter-ions that a name gives are not always drawn.
value-type: cell viability (%)

{"molecule": "Cc1cccc(-c2[nH]c(C(C)(C)C)nc2-c2ccc3c(c2)OCO3)n1", "readout-value": 83.8}
{"molecule": "O=S(=O)(NCCSSCCNS(=O)(=O)c1cc(Cl)ccc1Cl)c1cc(Cl)ccc1Cl", "readout-value": 48.8}
{"molecule": "C=C1CCOC1=O", "readout-value": 107}
{"molecule": "CC(C)=CCC[C@](C)(O[C@@H]1O[C@H](CO[C@@H]2O[C@H](CO)[C@@H](O)[C@H](O)[C@H]2O)[C@@H](O)[C@H](O)[C@H]1O)[C@H]1CC[C@]2(C)[C@@H]1[C@H](O)C[C@@H]1[C@@]3(C)CC[C@H](O[C@@H]4O[C@H](CO)[C@@H](O)[C@H](O)[C@H]4O[C@@H]4O[C@H](CO)[C@@H](O)[C@H](O)[C@H]4O)C(C)(C)[C@@H]3CC[C@]12C [Ginsenoside Rb1]", "readout-value": 102}
{"molecule": "COc1ccc(C[C@@H]2c3cc(OC)c(OC)cc3CC[N@+]2(C)CCC(=O)OCCCCCOC(=O)CC[N@@+]2(C)CCc3cc(OC)c(OC)cc3[C@H]2Cc2ccc(OC)c(OC)c2)cc1OC [Cisatracurium besylate (Nimbex)]", "readout-value": 93}
{"molecule": "OC[C@@H](O)[C@@H](O)[C@H](O)[C@@H](O)CO", "readout-value": 104}
{"molecule": "COc1cc(CCc2cc(NC(=O)c3ccc(N4CC(C)NC(C)C4)cc3)n[nH]2)cc(OC)c1 (stereo not given)", "readout-value": 21.5}
{"molecule": "CC(C)(F)C[C@H](N[C@@H](c1ccc(-c2ccc(S(C)(=O)=O)cc2)cc1)C(F)(F)F)C(=O)NC1(C#N)CC1", "readout-value": 104}
{"molecule": "C=CC(=O)Nc1cccc(Oc2nc(Nc3ccc(N4CCN(C)CC4)cc3OC)ncc2Cl)c1", "readout-value": 84.8}
{"molecule": "C=CCNC(N)=S", "readout-value": 104}
{"molecule": "Cc1c(NC(=O)OC[C@@H]2COCCN2)cn2ncnc(Nc3ccc4c(cnn4Cc4cccc(F)c4)c3)c12", "readout-value": 69.6}
{"molecule": "Nc1nc(=O)n([C@@H]2CS[C@H](CO)O2)cc1F", "readout-value": 107}
{"molecule": "CCCC(CCC)C(=O)O [Valproic acid sodium salt (Sodium valproate)]", "readout-value": 93.7}
{"molecule": "CCOC(=O)CC(=O)N1CCSC1COc1ccccc1OC (stereo not given)", "readout-value": 105}
{"molecule": "Cc1ccc(S(=O)(=O)NC(=O)NN2CC3CCCC3C2)cc1 (stereo not given) [Gliclazide (Diamicron)]", "readout-value": 106}

----------
Test system: MARIMO
Test: cell viability relative to vehicle control; higher = less cytotoxic
Conditions: 10 µM; SRSF2 genotype: SRSF2 P95H/wt
Where a name gives a salt, the structure may show the parent alone.
Categories are defined by ranges of cell viability, namely lower level: < 70%; middle level: ≥ 70% and < 90%; upper level: ≥ 90%

{"molecule": "Cc1cnc(Nc2ccc(N3CCN(C)CC3)cc2)nc1Nc1cccc(S(=O)(=O)NC(C)(C)C)c1", "target-or-test-system": "MARIMO", "class-name": "lower level"}
{"molecule": "COc1ccc(C(=O)Nc2sc3c(c2C(N)=O)CCCC3)cc1OC", "target-or-test-system": "MARIMO", "class-name": "upper level"}
{"molecule": "CC(C)(C)c1cc(/C=C(\\C#N)C(N)=S)cc(C(C)(C)C)c1O [Tyrphostin AG 879 (AG 879)]", "target-or-test-system": "MARIMO", "class-name": "middle level"}
{"molecule": "O=C(/C=C/C=C/c1ccc2c(c1)OCO2)N1CCCCC1 [Piperine (1-Piperoylpiperidine)]", "target-or-test-system": "MARIMO", "class-name": "upper level"}
{"molecule": "OC[C@@H](O)[C@@H](O[C@@H]1O[C@H](CO)[C@H](O)[C@H](O)[C@H]1O)[C@H](O)[C@@H](O)CO [Lactitol]", "target-or-test-system": "MARIMO", "class-name": "upper level"}
{"molecule": "CCOc1ccccc1OCCN[C@H](C)Cc1ccc(OC)c(S(N)(=O)=O)c1 [Tamsulosin]", "target-or-test-system": "MARIMO", "class-name": "middle level"}
{"molecule": "COCCc1ccc(OCC(O)CNC(C)C)cc1 (centres undefined) [Metoprolol tartrate]", "target-or-test-system": "MARIMO", "class-name": "upper level"}
{"molecule": "Cc1cnc(Nc2ccc(OCCN3CCCC3)cc2)nc1Nc1cccc(S(=O)(=O)NC(C)(C)C)c1", "target-or-test-system": "MARIMO", "class-name": "lower level"}
